# System: Ent. cloacae (3), Pr. vulgaris (1), Pr. morganii (1), S. marcescen (1)
# Assay Overview: In vitro MIC, serial two-fold agar dilution, primary evaluation Gn-II (Ent. cloacae, Pr. vulgaris, Pr. morganii, S. marcescens)
# Assay type: cell-based
# Condition Summary: CBPC = 100%; geometric mean of MICs; Mueller-Hinton agar
Below: a set of entries, each annotated with reported In vitro relative activity, primary evaluation Gn-II (6).
State the answer as a number, implicitly in %.

Worked set:
>>> numeric_readout("O=C([O-])C1=C(C[n+]2cccc(S(=O)(=O)O)c2)CSC2C(NC(=O)[C@H](NC(=O)c3cnc4cccnc4c3O)c3ccc(O)c(Cl)c3)C(=O)N12 (some centres unmarked)")
25
>>> numeric_readout("O=C([O-])C1=C(C[n+]2cccc(C(=O)O)c2)CSC2C(NC(=O)[C@H](NC(=O)c3cnc4cccnc4c3O)c3ccc(O)c(Cl)c3)C(=O)N12 (some centres unmarked)")
30
>>> numeric_readout("O=C(O)C=Cc1ccc[n+](CC2=C(C(=O)[O-])N3C(=O)C(NC(=O)[C@H](NC(=O)c4cnc5cccnc5c4O)c4ccc(O)cc4)C3SC2)c1 (some centres unmarked)")
14

Enquiry: Hi! What's the reported In vitro relative activity, primary evaluation Gn-II (6) for O=C(O)C=Cc1ccc[n+](CC2=C(C(=O)[O-])N3C(=O)C(NC(=O)[C@H](NC(=O)c4cnc5cccnc5c4O)c4ccc(O)c(O)c4)C3SC2)c1 (some centres unmarked) on Ent. cloacae (3), Pr. vulgaris (1), Pr. morganii (1), S. marcescen (1)?
Return: 14

Enquiry: Repeat for the following compound: O=C([O-])C1=C(C[n+]2ccc(C(=O)O)cc2)CSC2C(NC(=O)[C@H](NC(=O)c3cnc4cccnc4c3O)c3ccc(O)cc3)C(=O)N12 (some centres unmarked)
Return: 14

Enquiry: What do we get for O=C(O)Cc1ccc[n+](CC2=C(C(=O)[O-])N3C(=O)C(NC(=O)[C@H](NC(=O)c4cnc5cccnc5c4O)c4ccc(O)c(Cl)c4)C3SC2)c1 (some centres unmarked) ?
Return: 45

Enquiry: For O=C(O)Cc1cc[n+](CC2=C(C(=O)[O-])N3C(=O)C(NC(=O)[C@H](NC(=O)c4cnc5cccnc5c4O)c4ccc(O)cc4)C3SC2)cc1 (some centres unmarked) then?
Return: 18

Enquiry: Same again, this time with O=C([O-])C1=C(C[n+]2ccc(CCS(=O)(=O)O)cc2)CSC2C(NC(=O)[C@H](NC(=O)c3cnc4cccnc4c3O)c3ccc(O)cc3)C(=O)N12 (some centres unmarked)
Return: 45
